Hey, just so you know, these numbers are from patent US20210045385A1.

tested on: wheat (Triticum aestivum); test: Test A postemergence, visual plant response rating; assay type: in vivo; conditions: 500 g ai/ha, postemergence; 0 is no effect, 100 is complete control
measurement-type: Wheat plant response rating (0 to 100 scale)

INSERT INTO results (compound, recorded_measurement) VALUES
  ('Cc1nn(C)c(=O)c(/C(=N/OC(C)C)c2ccc(F)c3ccccc23)c1O', 50),
  ('CO/N=C(\c1cccc(C)c1)c1c(O)c(C)nn(C)c1=O', 0),
  ('CO/N=C(\c1sccc1C)c1c(O)c(C)nn(C)c1=O', 0),
  ('CON=C(c1c(O)c(C)nn(C)c1=O)c1cccc2ccoc12', 40),
  ('CON=C(c1sccc1C)c1c(O)c(C)nn(C)c1=O', 0),
  ('CON=C(c1c(O)c(C)nn(C)c1=O)c1cccc2cc(Br)ccc12', 50),
  ('CON=C(c1cccc(C(F)(F)F)c1Cl)c1c(O)c(C)nn(C)c1=O', 30),
  ('CON=C(c1cc(Cl)ccc1Cl)c1c(O)c(C)nn(C)c1=O', 40),
  ('CON=C(c1c(O)c(C)nn(C)c1=O)c1cccc2cc(F)ccc12', 0),
  ('CO/N=C(\c1cccc(C#N)c1)c1c(O)c(C)nn(C)c1=O', 0),
  ('C#CCn1nc(C)c(O)c(C(=NOC)c2cccc(Cl)c2)c1=O (mixture of isomers)', 10),
  ('CO/N=C(/c1ccccc1C#N)c1c(O)c(C)nn(C)c1=O', 0),
  ('CO/N=C(/c1cscc1C)c1c(O)c(C)nn(C)c1=O', 0),
  ('CON=C(c1cc(C)cs1)c1c(O)c(C)nn(C)c1=O (mixture of isomers)', 0),
  ('CON=C(c1cc(Cl)ccc1C)c1c(O)c(C)nn(C)c1=O', 20),
  ('CO/N=C(/c1ccccc1F)c1c(O)c(C)nn(C)c1=O', 0),
  ('CON=C(c1cc(Cl)ccc1C(F)(F)F)c1c(O)c(C)nn(C)c1=O', 50);

---

Recorded Barnyardgrass plant response rating (0 to 100 scale), one value per entry.
tested on: barnyardgrass (Echinochloa crus-galli); assay: Test C preemergence, visual plant response rating; type: in vivo; conditions: Test C, 31 g ai/ha, 0 is no effect, 100 is complete control
measurement-type: Barnyardgrass plant response rating (0 to 100 scale)

INSERT INTO assay_data (compound_string, recorded_measurement) VALUES
  ('C=CCO/N=C(\c1c(O)c(C)nn(C)c1=O)c1cccc2cc(Cl)ccc12', 20),
  ('CO/N=C(\c1cc(Cl)cc(Br)c1)c1c(O)c(C)nn(C)c1=O', 70),
  ('CO/N=C(\c1cccc(/C=C\Cl)c1)c1c(O)c(C)nn(C)c1=O', 70),
  ('CON=C(c1c(OC(C)=O)c(Cl)nn(C)c1=O)c1ccc(F)c2ccccc12', 30),
  ('Cc1nn(C)c(=O)c(/C(=N/OCc2ccccc2)c2ccc(F)c3ccccc23)c1O', 20),
  ('C#CCO/N=C(\c1ccc(F)c(Br)c1)c1c(O)c(C)nn(C)c1=O', 0),
  ('CO/N=C(/c1cccc(/C=C/Cl)c1)c1c(O)c(C)nn(C)c1=O', 0),
  ('CO/N=C(/c1cc(F)cc(F)c1C)c1c(O)c(C)nn(C)c1=O', 10),
  ('C#CCO/N=C(/c1ccc(F)c(Cl)c1)c1c(O)c(C)nn(C)c1=O', 0),
  ('C#CCON=C(c1cccc(OC)c1)c1c(O)c(C)nn(C)c1=O', 0);

---

system: pigweed (Amaranthus retroflexus); assay: Test A preemergence, visual plant response rating; format: in vivo; settings: 500 g ai/ha Preemergence; approx. 10 days
Please note: Pigweed plant response rating (0 to 100 scale) exactly at 90 is Criterion not met. Only values below 90 get Criterion met.

INSERT INTO assay_data (compound, target_desc, group_label) VALUES
  ('CON=C(c1cc(Cl)ccc1C)c1c(O)c(C)nn(C)c1=O [Compound 65]', 'pigweed (Amaranthus retroflexus)', 'Criterion not met'),
  ('CO/N=C(/c1ccccc1C(C)C)c1c(O)c(C)nn(C)c1=O [Compound 93]', 'pigweed (Amaranthus retroflexus)', 'Criterion met'),
  ('CCn1nc(C)c(O)c(C(=NOC)c2cccc(Cl)c2)c1=O (mixture of isomers) [Compound 2]', 'pigweed (Amaranthus retroflexus)', 'Criterion met'),
  ('CON=C(c1c(O)c(C)nn(C)c1=O)c1ccc(C)c2ccccc12 [Compound 131]', 'pigweed (Amaranthus retroflexus)', 'Criterion met'),
  ('CO/N=C(\c1ccsc1C)c1c(O)c(C)nn(C)c1=O [Compound 43]', 'pigweed (Amaranthus retroflexus)', 'Criterion met'),
  ('CO/N=C(\c1cccc(Cl)c1)c1c(O)c(C)nn(C)c1=O [Compound 10]', 'pigweed (Amaranthus retroflexus)', 'Criterion not met'),
  ('CO/N=C(/c1cc(C)ccc1C)c1c(O)c(C)nn(C)c1=O [Compound 30]', 'pigweed (Amaranthus retroflexus)', 'Criterion met'),
  ('CCO/N=C(\c1c(O)c(C)nn(C)c1=O)c1cccc2ccccc12 [Compound 79]', 'pigweed (Amaranthus retroflexus)', 'Criterion not met'),
  ('CON=C(c1c(O)c(C)nn(C)c1=O)c1csc2ccccc12 (single isomer, unassigned) [Compound 46]', 'pigweed (Amaranthus retroflexus)', 'Criterion met');

---

test system: pigweed (Amaranthus retroflexus); experiment: Test A postemergence, visual plant response rating; format: in vivo; details: Postemergence, 125 g ai/ha; 0 to 100 scale (0 no effect, 100 complete control)
Recorded Pigweed plant response rating, one value per entry.
measurement-type: Pigweed plant response rating

INSERT INTO assay_data (compound, measurement_type, recorded_measurement) VALUES
  ('CON=C(c1c(O)c(C)nn(C)c1=O)c1cccc2ccc(Cl)cc12', 'Pigweed plant response rating', 90),
  ('CON=C(c1ccc(C)o1)c1c(O)c(C)nn(C)c1=O', 'Pigweed plant response rating', 0),
  ('CO/N=C(/c1cccc(F)c1)c1c(O)c(C)nn(C)c1=O', 'Pigweed plant response rating', 40),
  ('CON=C(c1c(O)c(C)nn(C)c1=O)c1cccc2cc(Br)ccc12', 'Pigweed plant response rating', 80),
  ('CO/N=C(/c1cscc1C)c1c(O)c(C)nn(C)c1=O', 'Pigweed plant response rating', 80),
  ('CCO/N=C(/c1ccc(C)cc1)c1c(O)c(C)nn(C)c1=O', 'Pigweed plant response rating', 0),
  ('Cc1nn(C)c(=O)c(/C(=N\OC(C)C)c2ccc(F)c3ccccc23)c1O', 'Pigweed plant response rating', 80),
  ('CCO/N=C(\c1ccccc1C)c1c(O)c(C)nn(C)c1=O', 'Pigweed plant response rating', 20),
  ('CON=C(c1ccccc1C1CC1)c1c(O)c(C)nn(C)c1=O [Compound 105]', 'Pigweed plant response rating', 60),
  ('CON=C(c1c(O)c(C)nn(C)c1=O)c1ccc(OC)c2ccccc12', 'Pigweed plant response rating', 0);

---

system: pigweed (Amaranthus retroflexus); experiment: Test C preemergence, visual plant response rating; format: in vivo; conditions: Test C, 125 g ai/ha, 0 is no effect, 100 is complete control
measurement-type: Pigweed plant response rating (0 to 100 scale)

INSERT INTO assay_data (compound_string, target_desc, recorded_measurement) VALUES
  ('CO/N=C(\c1cccc(/C=C\Cl)c1)c1c(O)c(C)nn(C)c1=O', 'pigweed (Amaranthus retroflexus)', 0),
  ('CON=C(c1cc(Cl)cc(Cl)c1Cl)c1c(O)c(C)nn(C)c1=O', 'pigweed (Amaranthus retroflexus)', 100),
  ('CON=C(c1cc(Cl)cc(F)c1Cl)c1c(O)c(C)nn(C)c1=O', 'pigweed (Amaranthus retroflexus)', 100),
  ('CCO/N=C(\c1c(O)c(C)nn(C)c1=O)c1cccc2cc(Cl)ccc12', 'pigweed (Amaranthus retroflexus)', 90),
  ('C#CCO/N=C(/c1cc(Cl)cc(Br)c1)c1c(O)c(C)nn(C)c1=O', 'pigweed (Amaranthus retroflexus)', 80),
  ('CO/N=C(\c1cc(Cl)c(F)c(Cl)c1)c1c(O)c(C)nn(C)c1=O', 'pigweed (Amaranthus retroflexus)', 30),
  ('CO/N=C(\c1c(O)c(C)nn(C)c1=O)c1cccc2cc(Cl)ccc12', 'pigweed (Amaranthus retroflexus)', 90);

---

Recorded Blackgrass plant response rating (0 to 100 scale), one value per entry.
test system: blackgrass (Alopecurus myosuroides); assay: Test C postemergence, visual plant response rating; format: in vivo; settings: Postemergence, 31 g ai/ha
measurement-type: Blackgrass plant response rating (0 to 100 scale)

INSERT INTO assay_data (compound, recorded_measurement) VALUES
  ('CCO/N=C(\c1c(O)c(Cl)nn(C)c1=O)c1cc(Br)cc2ccccc12', 20),
  ('Cc1nn(C)c(=O)c(C(=NOCC2CC2)c2cc(Cl)cc(Cl)c2Cl)c1O [Compound 182]', 10),
  ('C#CCO/N=C(\c1ccc(F)c(Br)c1)c1c(O)c(C)nn(C)c1=O', 30),
  ('C#CCO/N=C(/c1ccc(F)c(Br)c1)c1c(O)c(C)nn(C)c1=O', 20),
  ('C#CCO/N=C(/c1c(O)c(C)nn(C)c1=O)c1cccc2cc(Cl)ccc12', 80);
